test system: Mycobacterium tuberculosis; assay: Antitubercular activity against moxifloxacin resistant Mycobacterium tuberculosis H37Rv after 24 hrs by MABA method; type: functional
Assignment: determine reported MIC90 for the given molecules.

In: What does the data say about its MIC90? Entry: COc1nc2ccc(Br)cc2cc1[C@@H](c1ccccc1)[C@@](O)(CCN(C)C)c1cccc2ccccc12
Out: 0.06 µM

In: And then NC(=O)c1c(COc2cccc(/C=N/NC(=O)c3ccncc3)c2)no[n+]1[O-] , what is it?
Out: 1.22 µM

In: And then NC(=O)c1c(COc2ccc(/C=N/NC(=O)c3ccncc3)cc2)no[n+]1[O-] , what is it?
Out: 0.66 µM

In: And then NC(=O)c1c(COc2ccccc2/C=N/NC(=O)c2ccncc2)no[n+]1[O-] , what is it?
Out: 0.81 µM

In: And then NNC(=O)c1ccncc1 , what is it?
Out: 0.28 µM

In: And then O=C(N/N=C/c1ccc2no[n+]([O-])c2c1)c1ccncc1 , what is it?
Out: 5.72 µM

In: And then COc1c(N2C[C@@H]3CCCN[C@@H]3C2)c(F)cc2c(=O)c(C(=O)O)cn(C3CC3)c12 , what is it?
Out: > 8 µM

Data provenance is ChEMBL document CHEMBL4028867.
